ASSAYED_SYSTEM: Kir3.1/3.4 (Rattus norvegicus, UniProt P48548+P63251)
Construct: expressed in transfected cells
Sequence (P63251 1-501): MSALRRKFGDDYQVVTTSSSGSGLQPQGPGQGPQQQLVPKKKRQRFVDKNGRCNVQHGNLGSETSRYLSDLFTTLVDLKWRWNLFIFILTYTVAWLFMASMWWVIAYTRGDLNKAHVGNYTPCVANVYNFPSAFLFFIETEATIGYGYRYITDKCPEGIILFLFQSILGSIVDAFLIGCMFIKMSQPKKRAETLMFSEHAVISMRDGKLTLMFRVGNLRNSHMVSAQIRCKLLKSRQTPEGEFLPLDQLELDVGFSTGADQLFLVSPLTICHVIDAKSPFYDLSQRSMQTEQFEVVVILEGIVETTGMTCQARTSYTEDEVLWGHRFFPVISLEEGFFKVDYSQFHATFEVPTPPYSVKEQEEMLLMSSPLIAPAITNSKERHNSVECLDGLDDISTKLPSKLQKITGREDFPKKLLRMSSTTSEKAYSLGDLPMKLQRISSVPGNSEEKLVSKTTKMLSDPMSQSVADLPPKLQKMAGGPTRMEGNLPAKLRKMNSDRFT
Sequence (P48548 1-419): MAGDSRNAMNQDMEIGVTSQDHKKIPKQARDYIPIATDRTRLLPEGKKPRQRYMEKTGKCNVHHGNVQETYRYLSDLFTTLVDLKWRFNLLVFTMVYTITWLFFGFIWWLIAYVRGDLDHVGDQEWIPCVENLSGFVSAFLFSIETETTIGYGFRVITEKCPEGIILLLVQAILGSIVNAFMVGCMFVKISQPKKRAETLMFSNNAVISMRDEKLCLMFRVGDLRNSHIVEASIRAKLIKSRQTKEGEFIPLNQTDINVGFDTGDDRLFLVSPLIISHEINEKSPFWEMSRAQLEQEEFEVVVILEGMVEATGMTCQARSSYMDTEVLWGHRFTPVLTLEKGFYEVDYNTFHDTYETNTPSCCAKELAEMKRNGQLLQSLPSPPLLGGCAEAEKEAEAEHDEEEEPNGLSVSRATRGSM
METHOD_DESCRIPTION: Kir3.1/3.4 Q-patch Method (automated patch clamp, Sophion Q-patch)
Assay type: cell-based
MEASUREMENT_CONTEXT: HEK293 cells stably-expressing Kir3.1/3.4; current at -120 mV; QPatch-16 or QPatch-48
pIC50: −log10 of the molar value.
Recorded pIC50 by entry

Consider the worked cases shown below.
[[record]]
molecule = "Clc1ccccc1-c1csc2nc(N3CCOCC3)nc(N3C4CCC3COC4)c12 [Example 425]"
value_type = "pIC50"
endpoint_value = "> 6.30"

[[record]]
molecule = "Clc1ccccc1-c1csc2nc(N3C4CCC3COC4)nc(N3C4CCC3COC4)c12 [Example 423]"
value_type = "pIC50"
endpoint_value = "5.52 to 6.30"


Form field, pIC50 with Kir3.1/3.4 (Rattus norvegicus, UniProt P48548+P63251), item COc1ccccc1-c1csc2nc(N3C4CCC3CC(OC)C4)nc(N3C4CCC3CC(OC)C4)c12 (stereo not drawn) [Example 407] : 5.52 to 6.30

Here COc1ccccc1-c1csc2nc(N3C4CCC3CC(CO)C4)nc(N3CCNC(=O)C3)c12 (stereo not drawn) [Example 413] was tested on Kir3.1/3.4 (Rattus norvegicus, UniProt P48548+P63251), and its pIC50 came to > 6.30

# COc1ccccc1-c1csc2nc(N3CCC(C(N)=O)C3)nc(N3C4CCC3CC(OC)C4)c12 (stereo not drawn) [Example 396] with Kir3.1/3.4 (Rattus norvegicus, UniProt P48548+P63251): pIC50 is > 6.30

Known value: Kir3.1/3.4 (Rattus norvegicus, UniProt P48548+P63251) pIC50 of the molecule COc1ccccc1-c1csc2nc(N3C4CCC3CC(O)C4)nc(N3C4CCC3CC(OC)C4)c12 (stereo not drawn) [Example 377] equals 5.52 to 6.30
